# assay_name: NCI Yeast Anticancer Drug Screen. Data for the bub3 strain (AID 167)
# details: S. cerevisiae bub3 mutant strain, at 50.0 µM, hits give high values
Compounds without any hit were thinned out: in the full panel of roughly 79,000, 15% have a hit.
Listing of recorded growth inhibition by entry.
Hi! Could you send only the number? It should be in %, unit omitted.

compound	growth inhibition / %
Clc1ccc(-c2ncc(-c3ccccc3)o2)c(Cl)c1	9.2
COc1ccccc1C(=O)Nc1c(C)cccc1Cl	-10
CCOC(=O)c1[nH]c(COC(C)=O)c2c1CCCCCCCCCC2	5
N#CC(CCc1ccccc1)(c1ccccc1)c1ccccc1	9.5
CCOC(=O)C1C=CC(C)N(C(=O)OCC)N1C(=O)OCC (centres undefined)	49.9
O=C(O)c1cccc(=O)o1	7.1
COC(=O)c1c(C(=O)Nc2ccccc2)c(-c2ccccc2)n(NC(N)=O)c1C	-1.75
CCCCCCC1CCCCC1	-28.8

I am curious: what growth inhibition value has been reported for `CC(C)n1c(=S)[nH]c2c(=O)[nH]c(=O)[nH]c21` ?
10.8
